Target: UniProt:B4EMD2
Assay: CepI enzymatic assay (holo-ACP formation with DCPIP)
observed-property: Ki (µM)
Write the number in µM without appending the unit.

**Q:** Any idea what its Ki is? The molecule is O=C1C=CC(=O)C(C2NC(=O)C(Cc3ccccc3)NC2=O)=C1 (stereo not shown)
**A:** 17

---

Target: B. cenocepacia CepI (Burkholderia cenocepacia, UniProt B4EMD2)
Sequence (B4EMD2 1-202): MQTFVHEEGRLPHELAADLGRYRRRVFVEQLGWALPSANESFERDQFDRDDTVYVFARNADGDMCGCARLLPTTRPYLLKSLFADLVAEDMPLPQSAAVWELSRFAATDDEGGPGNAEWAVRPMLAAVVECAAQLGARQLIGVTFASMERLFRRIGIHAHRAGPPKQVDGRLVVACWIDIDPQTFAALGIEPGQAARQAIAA
Experiment: CepI enzymatic assay (holo-ACP formation with DCPIP)
Format: biochemical, Burkholderia cenocepacia J2315
Settings: recombinant CepI; read-out: CepI IC50
observed-property: pIC50
Scale: negative log10 of molar concentration, which is what pIC50 denotes.

**Q:** Any idea what its pIC50 is? The compound is CN1CCN(C(c2ccccn2)c2c(-c3ccccc3)n(O)c3ccccc23)CC1 (centres unmarked) [compound 1 from Christensen et al., reference compound]
**A:** 5.14

Data origin, for the record: paper PMC5007513
